Data provenance: patent US11332470B2

pIC50 values for the compounds below.
target-under-test: CXCR4 (Jurkat cells expressing CXCR4) (Homo sapiens)
Construct: Jurkat cells expressing CXCR4; endogenous in cells; host or cells: Jurkat
Sequence (P61073 whole entry): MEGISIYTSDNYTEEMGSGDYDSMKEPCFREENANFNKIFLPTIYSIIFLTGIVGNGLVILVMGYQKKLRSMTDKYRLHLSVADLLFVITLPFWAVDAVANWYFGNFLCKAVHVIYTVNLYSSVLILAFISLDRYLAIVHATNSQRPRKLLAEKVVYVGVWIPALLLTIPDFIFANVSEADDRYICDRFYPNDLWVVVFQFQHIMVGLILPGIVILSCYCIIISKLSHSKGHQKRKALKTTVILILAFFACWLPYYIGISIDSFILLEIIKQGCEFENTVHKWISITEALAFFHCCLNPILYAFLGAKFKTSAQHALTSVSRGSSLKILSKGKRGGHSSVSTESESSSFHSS
experiment-notes: Chemokine (CXCL12-AF647) binding inhibition assay
condition-description: CXCL12-AF647 25 ng/mL, read-out: IC50 CXCL-12 binding Jurkat
pIC50: −log10 of the molar value.

Ask: Requested field: pIC50. Item: CN1CCN(c2cccc3nc(C4CCCN4Cc4ccccn4)[nH]c23)CC1 (stereo not drawn) [Compound I-104]
Result: 7.00 to 11.00

Ask: What value of pIC50 has been recorded for this entry: Cc1cccnc1C1CCCN1Cc1cccc(CC2CCN(C)CC2)n1 (stereo not drawn) [Compound I-116]
Result: ≤ 6.00

Ask: GET /values?readout=pIC50&item= c1ccc(C2CCCN2Cc2nc3ccccn3c2N2CCN(c3ccncc3)CC2)nc1 (stereo not drawn) [Compound I-133]
Result: 6.00 to 7.00

* * *

Documented fraction unbound across a set of compounds
experiment-notes: Fraction of drug unbound to brain proteins
Type: in vitro ADME, Mouse
condition-description: Table 10, mouse, read-out: Fu (b) % (fraction of drug unbound to brain proteins)

>  <compound>
Cc1cccnc1C1CCCN1Cc1nc2cccc(N3CCN(C4CC4)CC3)c2[nH]1 (centres unmarked) [Compound I-31]

>  <fraction unbound>
0.008

$$$$

Ask: For the compound shown here, Cc1cccnc1C1CCCN1Cc1cn2c(N3CCN(C)C4(CC4)C3)cccc2n1 (centres unmarked) [Compound I-29] , give the reported fraction unbound.
Result: 0.063

* * *

Here, each record is paired with measured Papp A→B at 90 min, 10 μM data.
experiment-notes: in vitro
condition-description: human, Caco-2, pH 7.4

>  <molecule>
CN1CCN(c2cccc3nc(CN4CCCC4c4nccs4)[nH]c23)CC1 (stereo not shown)

>  <Papp A→B at 90 min, 10 μM>
100 to 300 nm/s

$$$$
>  <molecule>
Cc1cccnc1C1CCCN1Cc1nccn1CC1CCN(c2ccccn2)CC1 (stereo not shown)

>  <Papp A→B at 90 min, 10 μM>
> 300 nm/s

$$$$
>  <molecule>
Cc1cccnc1C1CCCN1Cc1cn2c(C3OCC(N(C)C)CO3)cccc2n1 (stereo not shown)

>  <Papp A→B at 90 min, 10 μM>
1 to 100 nm/s

$$$$

Ask: Which value of Papp A→B at 90 min, 10 μM has been reported for CN1CCN(C(=O)c2c(CN3CCCC3c3ccccn3)nc3ccccn23)CC1 (stereo not shown) in the records?
Result: 1 to 100 nm/s

Ask: Quick one: Papp A→B at 90 min, 10 μM for Cc1cccnc1C1CCCN1Cc1ncccc1CC1CCN(C)CC1 (stereo not shown) ?
Result: 1 to 100 nm/s

Ask: Papp A→B at 90 min, 10 μM for c1ccc(N2CCN(c3c(CN4CCCC4c4ccccn4)nc4ccccn34)CC2)cc1 (stereo not shown) ?
Result: 100 to 300 nm/s

Ask: Quick one: Papp A→B at 90 min, 10 μM of CN1CCN(c2cccc3nc(CN4CCCC4c4ncccc4Cl)c(F)n23)CC1 (stereo not shown) ?
Result: 1 to 100 nm/s

Ask: // Papp A→B at 90 min, 10 μM lookup, key: CN1CCN(c2c(C3CCCN3Cc3ccccn3)nc3ccccn23)CC1 (stereo not shown)
Result: 1 to 100 nm/s

Ask: Which Papp A→B at 90 min, 10 μM value belongs to Cc1cccnc1C1CCCN1Cc1cn2c(N3CCN(C)C4(CC4)C3)cccc2n1 (stereo not shown) ?
Result: 100 to 300 nm/s

Ask: Reported Papp A→B at 90 min, 10 μM for Cc1cccnc1C1CCCN1Cc1ccccc1-n1cccn1 (stereo not shown) : what is it?
Result: > 300 nm/s

Ask: Endpoint output: Papp A→B at 90 min, 10 μM of CN1CCN(c2cccc3nc(CN4CCCC4c4ncc[nH]4)cn23)CC1 (stereo not shown) . Value?
Result: 1 to 100 nm/s

* * *

experiment-notes: Mouse brain uptake assay (pharmacokinetics and brain penetration after IV administration)
Type: in vivo, Male CD1 Mice
condition-description: male, CD1; mouse plasma, 3 mg/kg IV, 0-24 h, 4 time points; read-out: AUClast (p) (area under the plasma drug concentration-time curve)
measurement-type: AUC(0-t) (ng·h/mL)
Supply the numeric figure in ng·h/mL, leaving out any unit text.

>  <compound>
Cc1cccnc1C1CCCN1Cc1nc2cccc(N3CCN(C4CC4)CC3)c2[nH]1 (centres unmarked)

>  <AUC(0-t), ng·h/mL>
195

$$$$

For the next question, use this compound.
Ask: // lookup AUC(0-t) for Cc1cccnc1C1CCCN1Cc1cn2c(N3CCN(C)C4(CC4)C3)cccc2n1 (centres unmarked)
Result: 737

* * *

experiment-notes: Mouse brain uptake assay (pharmacokinetics and brain penetration after IV administration)
Assay type: in vivo, Male CD1 Mice
condition-description: male, CD1, plasma; mouse, 3 mg/kg IV, 0-1 h, 3 time points; read-out: Cl (Clearance) (converted)
Measured clearance values are reported for all entries that follow.
Note: unit mL/min/kg is implicit; provide only the numeric part.

>  <compound>
Cc1cccnc1CN1CCCC1c1nc2cccc(N3CCN(C)CC3)c2[nH]1 (stereo not drawn) [Compound I-45]

>  <measurement-type>
clearance

>  <result-unit>
mL/min/kg

>  <measurement>
41.8

$$$$
>  <compound>
CN1CCN(c2c(CN3CCCC3c3ccccn3)nc3ccccn23)CC12CC2 (stereo not drawn) [Compound I-58]

>  <measurement-type>
clearance

>  <result-unit>
mL/min/kg

>  <measurement>
38.7

$$$$

Now look at this one.
Ask: Bench note: what clearance did CN1CCN(c2c(CN3CCCC3c3ccccn3)nc3ccccn23)CC1 (stereo not drawn) [Compound I-41] show?
Result: 33.2

* * *

experiment-notes: Mouse brain uptake assay (pharmacokinetics and brain penetration after IV administration)
Assay type: in vivo, Male CD1 Mice
condition-description: male, CD1; mouse plasma, 3 mg/kg IV, time zero to 1 hr, 3 time points; read-out: AUClast (p) (area under the plasma drug concentration-time curve)
Procedure: Example 15: Pharmacokinetics and Brain Penetration Experiment to Determine Brain and Plasma Concentrations of Compounds after IV Administration to Male CD1 Mice or Male SD Rats The study design (9 animals) consisted of administrating the drug (IV: 3 mg/kg (5 mL/kg) via tail vein injection) and collecting samples at terminal bleeding for plasma and brain at 0.083, 0.5 and 1 h. […]
Label scheme for AUC(0-t): lower than 400 ng·h/mL is 0, 400 ng·h/mL and above is 1.

Examples with answers:
>  <molecule>
CN1CCN(c2c(CN3CCCC3c3nccs3)nc3ccccn23)CC1 (centres unmarked) [Compound I-70]

>  <assigned-category>
1

$$$$
>  <molecule>
CN1CCN(c2c(CN3CCCC3c3ccccn3)nc3ccccn23)CC1 (centres unmarked) [Compound I-41]

>  <assigned-category>
0

$$$$
>  <molecule>
Cc1cccnc1CN1CCCC1c1nc2cccc(N3CCN(C)CC3)c2[nH]1 (centres unmarked) [Compound I-45]

>  <assigned-category>
0

$$$$
>  <molecule>
Cc1cccnc1C1CCCN1Cc1nc2ccccc2n1C1CCN(C)CC1 (centres unmarked) [Compound I-33]

>  <assigned-category>
0

$$$$
>  <molecule>
CN1CCN(c2c(CN3CCCC3c3ncccc3Cl)nc3ccccn23)CC1 (centres unmarked) [Compound I-59]

>  <assigned-category>
0

$$$$

Now examine the next entry.
Ask: Determine whether measured AUC(0-t) meets or exceeds 400 ng·h/mL for CN1CCN(c2c(CN3CCCC3c3ccccn3)nc3ccc(F)cn23)CC1 (centres unmarked) [Compound I-63]
Result: 1

* * *

target-under-test: CXCR4 (Jurkat cells expressing CXCR4) (Homo sapiens)
Construct: Jurkat cells expressing CXCR4; endogenous in cells
experiment-notes: Chemokine (CXCL12-AF647) binding inhibition assay
condition-description: CXCL12-AF647 25 ng/mL, read-out: IC50 CXCL-12 binding Jurkat
measurement-type: IC50

Some compounds with recorded IC50:
>  <compound>
Cc1cccnc1C1CCCN1Cc1nc2c(N3CCN(C)CC3)cccc2[nH]1 (stereo not drawn)

>  <target-under-test>
CXCR4 (Jurkat cells expressing CXCR4) (Homo sapiens)

>  <measurement-type>
IC50

>  <measurement>
0.01 to 100 nM

$$$$
>  <compound>
Cc1cccnc1C1CCCN1Cc1cc2c(N3CCN(C)CC3)cccc2o1 (stereo not drawn)

>  <target-under-test>
CXCR4 (Jurkat cells expressing CXCR4) (Homo sapiens)

>  <measurement-type>
IC50

>  <measurement>
100 to 1000 nM

$$$$
>  <compound>
CN1CCN(c2cccc3nc(CN4CCCC4c4ccccn4)[nH]c23)CC1 (stereo not drawn)

>  <target-under-test>
CXCR4 (Jurkat cells expressing CXCR4) (Homo sapiens)

>  <measurement-type>
IC50

>  <measurement>
0.01 to 100 nM

$$$$

Ask: Entry under review: c1ccc(OCc2c(CN3CCCC3c3ccccn3)nc3ccccn23)nc1 (stereo not drawn) . Reported IC50?
Result: ≥ 1000 nM

Ask: May I ask what IC50 has been recorded for Cc1cccnc1C1CCCN1Cc1nc2cccc(N3CCN(C)CC3)c2s1 (stereo not drawn) ?
Result: 100 to 1000 nM
